target: cIAP2-BIR3 (Homo sapiens (Human)); test: BIR binding assay (FRET competition), cIAP2 BIR3; settings: fold separation (FS) for cIAP2
Sequence (Q13489 238-349): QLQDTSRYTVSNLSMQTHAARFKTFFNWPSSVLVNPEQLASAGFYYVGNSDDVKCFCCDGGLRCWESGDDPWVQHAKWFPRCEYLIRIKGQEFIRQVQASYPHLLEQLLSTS
Measured quantity: cIAP2 BIR3 vs BIR2 separation window

[
  {
    "Smiles string": "C[C@@H]1CN(CC(=O)N2CC(C)(C)c3[nH]c(=O)c(Cc4ccc(F)cc4)cc32)[C@@H](CN2CCO[C@H](COc3ccc(C#N)c(OC[C@@H]4CN(C[C@H]5CN[C@H](C)CN5CC(=O)N5CC(C)(C)c6[nH]c(=O)c(Cc7ccc(F)cc7)cc65)CCO4)c3)C2)CN1",
    "Measured quantity": "cIAP2 BIR3 vs BIR2 separation window",
    "Data value": "+++ (10,000>FS>1,000)"
  },
  {
    "Smiles string": "C[C@@H]1CN(CC(=O)N2CC(C)(C)c3[nH]c(=O)c(Cc4ccc(F)cc4)cc32)[C@@H](CN2CCO[C@H](C(=O)NCC#CC#CCNC(=O)[C@@H]3CN(C[C@H]4CN[C@H](C)CN4CC(=O)N4CC(C)(C)c5[nH]c(=O)c(Cc6ccc(F)cc6)cc54)CCO3)C2)CN1",
    "Measured quantity": "cIAP2 BIR3 vs BIR2 separation window",
    "Data value": "+++ (10,000>FS>1,000)"
  },
  {
    "Smiles string": "C[C@@H]1CN(CC(=O)N2CC(C)(C)c3[nH]c(=O)c(Cc4ccc(F)cc4)cc32)[C@@H](CN2CCO[C@H](C(=O)NCC(=O)N3CCN(C[C@H]4CN[C@H](C)CN4CC(=O)N4CC(C)(C)c5[nH]c(=O)c(Cc6ccc(F)cc6)cc54)[C@H](C)C3)C2)CN1",
    "Measured quantity": "cIAP2 BIR3 vs BIR2 separation window",
    "Data value": "+++ (10,000>FS>1,000)"
  },
  {
    "Smiles string": "C[C@@H]1CN(CC(=O)N2CC(C)(C)c3[nH]c(=O)c(Cc4ccc(F)cc4)cc32)[C@@H](CN2CCN(C(=O)c3ccc(/C=C/c4ccc(C(=O)N5CCN(C[C@H]6CN[C@H](C)CN6CC(=O)N6CC(C)(C)c7[nH]c(=O)c(Cc8ccc(F)cc8)cc76)[C@H](C)C5)cc4)cc3)C[C@H]2C)CN1",
    "Measured quantity": "cIAP2 BIR3 vs BIR2 separation window",
    "Data value": "++ (1,000>FS>100)"
  },
  {
    "Smiles string": "Cc1cc(OC[C@@H]2CN(C[C@H]3CN[C@H](C)CN3CC(=O)N3CC(C)(C)c4[nH]c(=O)c(Cc5ccc(F)cc5)cc43)CCO2)cc(OC[C@@H]2CN(C[C@H]3CN[C@H](C)CN3CC(=O)N3CC(C)(C)c4[nH]c(=O)c(Cc5ccc(F)cc5)cc43)CCO2)c1",
    "Measured quantity": "cIAP2 BIR3 vs BIR2 separation window",
    "Data value": "+++ (10,000>FS>1,000)"
  },
  {
    "Smiles string": "C[C@@H]1CN(CC(=O)N2CC(C)(C)c3[nH]c(=O)c(Cc4ccc(F)cc4)cc32)[C@@H](CN2CCN(CCc3cn(CCCCC(=O)N4CCN(C[C@H]5CN[C@H](C)CN5CC(=O)N5CC(C)(C)c6[nH]c(=O)c(Cc7ccc(F)cc7)cc65)[C@H](C)C4)nn3)C[C@H]2C)CN1",
    "Measured quantity": "cIAP2 BIR3 vs BIR2 separation window",
    "Data value": "++ (1,000>FS>100)"
  },
  {
    "Smiles string": "C[C@@H]1CN(CC(=O)N2CC(C)(C)c3[nH]c(=O)c(Cc4ccc(Cl)cc4O)cc32)[C@@H](CN2CCO[C@H](C(=O)NCc3ccc(CNC(=O)[C@@H]4CN(C[C@H]5CN[C@H](C)CN5CC(=O)N5CC(C)(C)c6[nH]c(=O)c(Cc7ccc(Cl)cc7O)cc65)CCO4)cc3)C2)CN1",
    "Measured quantity": "cIAP2 BIR3 vs BIR2 separation window",
    "Data value": "++ (1,000>FS>100)"
  },
  {
    "Smiles string": "C[C@@H]1CN(CC(=O)N2CC(C)(C)c3c2cc(Cc2ccc(F)cc2)c(=O)n3C)[C@@H](CN2CCO[C@H](COCc3ccc(COC[C@@H]4CN(C[C@H]5CN[C@H](C)CN5CC(=O)N5CC(C)(C)c6c5cc(Cc5ccc(F)cc5)c(=O)n6C)CCO4)cc3)C2)CN1",
    "Measured quantity": "cIAP2 BIR3 vs BIR2 separation window",
    "Data value": "+++ (10,000>FS>1,000)"
  },
  {
    "Smiles string": "C[C@@H]1CN(CC(=O)N2CC(C)(C)c3[nH]c(=O)c(Cc4c(F)cc(F)cc4F)cc32)[C@@H](CN2CCO[C@H](COc3cccc(OC[C@@H]4CN(C[C@H]5CN[C@H](C)CN5CC(=O)N5CC(C)(C)c6[nH]c(=O)c(Cc7c(F)cc(F)cc7F)cc65)CCO4)c3)C2)CN1",
    "Measured quantity": "cIAP2 BIR3 vs BIR2 separation window",
    "Data value": "++ (1,000>FS>100)"
  },
  {
    "Smiles string": "C[C@@H]1CN(CC(=O)N2CC(C)(C)c3[nH]c(=O)c(Cc4ccc(F)cc4)cc32)[C@@H](CN2CCN(Cc3cn(CCC(=O)N4CCN(C[C@H]5CN[C@H](C)CN5CC(=O)N5CC(C)(C)c6[nH]c(=O)c(Cc7ccc(F)cc7)cc65)[C@H](C)C4)nn3)C[C@H]2C)CN1",
    "Measured quantity": "cIAP2 BIR3 vs BIR2 separation window",
    "Data value": "+++ (10,000>FS>1,000)"
  },
  {
    "Smiles string": "C[C@@H]1CN(CC(=O)N2CC(C)(C)c3[nH]c(=O)c(Cc4ccc(F)cc4)cc32)[C@@H](CN2CCO[C@H](C(=O)NCCCNC(=O)[C@@H]3CN(C[C@H]4CN[C@H](C)CN4CC(=O)N4CC(C)(C)c5[nH]c(=O)c(Cc6ccc(F)cc6)cc54)CCO3)C2)CN1",
    "Measured quantity": "cIAP2 BIR3 vs BIR2 separation window",
    "Data value": "+++ (10,000>FS>1,000)"
  },
  {
    "Smiles string": "C[C@@H]1CN(CC(=O)N2CC(C)(C)c3ncc(Cc4ccccc4)cc32)[C@@H](CN2CCO[C@H](COc3cccc(OC[C@@H]4CN(C[C@H]5CN[C@H](C)CN5CC(=O)N5CC(C)(C)c6ncc(Cc7ccccc7)cc65)CCO4)c3)C2)CN1",
    "Measured quantity": "cIAP2 BIR3 vs BIR2 separation window",
    "Data value": "++++ (FS>10,000)"
  },
  {
    "Smiles string": "C[C@@H]1CN(CC(=O)N2CC(C)(C)c3[nH]c(=O)c(Cc4ccc(F)cc4)cc32)[C@@H](CN2CCO[C@H](C(=O)N(C)CCCN(C)C(=O)[C@@H]3CN(C[C@H]4CN[C@H](C)CN4CC(=O)N4CC(C)(C)c5[nH]c(=O)c(Cc6ccc(F)cc6)cc54)CCO3)C2)CN1",
    "Measured quantity": "cIAP2 BIR3 vs BIR2 separation window",
    "Data value": "+++ (10,000>FS>1,000)"
  },
  {
    "Smiles string": "C[C@@H]1CN(CC(=O)N2CC(C)(C)c3[nH]c(=O)c(Cc4ccc(F)cc4)cc32)[C@@H](CN2CCO[C@H](COc3ccc(Oc4cccc(Oc5ccc(OC[C@@H]6CN(C[C@H]7CN[C@H](C)CN7CC(=O)N7CC(C)(C)c8[nH]c(=O)c(Cc9ccc(F)cc9)cc87)CCO6)cc5)c4)cc3)C2)CN1",
    "Measured quantity": "cIAP2 BIR3 vs BIR2 separation window",
    "Data value": "++++ (FS>10,000)"
  }
]

Data origin, for the record: patent US20250326771A1
